Target: Protein Mdm4 (Homo sapiens) + E3 ubiquitin-protein ligase Mdm2 (Homo sapiens) (UniProt O15151+Q00987)
Sequence (O15151 whole entry, looked up): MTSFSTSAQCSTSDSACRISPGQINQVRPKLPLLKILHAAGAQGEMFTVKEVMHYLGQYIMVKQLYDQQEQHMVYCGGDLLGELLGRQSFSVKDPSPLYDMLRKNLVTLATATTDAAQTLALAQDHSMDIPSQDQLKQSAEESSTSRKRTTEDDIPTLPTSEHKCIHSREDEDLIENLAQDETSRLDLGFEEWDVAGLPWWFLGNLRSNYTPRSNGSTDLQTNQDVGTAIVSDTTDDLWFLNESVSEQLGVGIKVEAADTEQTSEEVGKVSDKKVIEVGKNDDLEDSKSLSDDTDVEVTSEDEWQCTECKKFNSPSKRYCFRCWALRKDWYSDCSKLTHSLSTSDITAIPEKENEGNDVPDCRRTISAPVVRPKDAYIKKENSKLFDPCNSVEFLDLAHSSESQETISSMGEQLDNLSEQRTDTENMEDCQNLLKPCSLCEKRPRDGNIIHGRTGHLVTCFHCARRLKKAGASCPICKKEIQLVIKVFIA
Sequence (Q00987 whole entry, looked up): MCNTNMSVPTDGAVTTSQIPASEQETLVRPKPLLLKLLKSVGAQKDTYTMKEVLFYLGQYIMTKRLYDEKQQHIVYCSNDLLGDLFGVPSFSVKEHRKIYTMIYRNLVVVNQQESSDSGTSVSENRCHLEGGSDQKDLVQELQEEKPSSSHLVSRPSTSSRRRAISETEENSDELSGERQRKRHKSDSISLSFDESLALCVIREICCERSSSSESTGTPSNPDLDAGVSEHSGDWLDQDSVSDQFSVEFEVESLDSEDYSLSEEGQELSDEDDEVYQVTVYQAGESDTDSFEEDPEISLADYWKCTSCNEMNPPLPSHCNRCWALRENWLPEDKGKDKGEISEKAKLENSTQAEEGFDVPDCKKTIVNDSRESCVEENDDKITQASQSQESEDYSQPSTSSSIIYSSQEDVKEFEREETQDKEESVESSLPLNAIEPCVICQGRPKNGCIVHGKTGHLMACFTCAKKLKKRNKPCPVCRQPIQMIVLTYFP
Test: inhibitors of human Mdm2-MdmX association, primary screen, cell-based, luminescence, split luciferase, SaOS-2, uHTS (AID 485346)
Details: SaOS-2 split-luciferase Mdm2/MdmX complementation, at 8 µM
Among all 330,000 compounds or so, about 10,000 (3%) were called active.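 The calls were made as follows: active = inhibition of at least 50% at 8 µM in the primary screen; inactive = the rest.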 Shown is part of a subset that was picked to be rich in actives.
Hi! Could you answer with just one of these? active, inactive

Assay result, entry "COc1ccc(S(=O)(=O)N(CC(=O)N/N=C/c2ccccc2C(=O)O)c2ccccc2OC)cc1" — outcome?
inactive

For "Cc1noc(C)c1C(=O)OCC(=O)N1CCN(S(=O)(=O)c2ccc3ccccc3c2)CC1" , what call appears in the results of this test?
inactive

Please let me know the test result on file for "C#CCOCCOCCOCCNc1nc(N2CCN(C(=O)CCCCCCCCCCNC(=O)[C@H](CCCCN)n3cc(C)nn3)CC2)nc(N2CCN(C(=O)CCCCCCCCCCNC(=O)[C@H](CO)n3cc(CCCSC)nn3)CC2)n1" .
active

Which outcome was assigned to "CC(=O)N(CCCN(C)C)c1nc2ccc(C)cc2s1" in this test?
inactive

Could you check what this test reported for "C#CCOCCOCCOCCNc1nc(N2CCN(C(=O)CCCCCCCCCCNC(=O)[C@H]([C@@H](C)CC)n3cc(CCCCN=C(N)N)nn3)CC2)nc(N2CCN(C(=O)CCCCCCCCCCNC(=O)[C@H](CO)n3cc(CCCSC)nn3)CC2)n1" ?
inactive

----------
Biological target: Protein Mdm4 (Homo sapiens) + E3 ubiquitin-protein ligase Mdm2 (Homo sapiens) (UniProt O15151+Q00987)
Test: inhibitors of human Mdm2-MdmX association, primary screen, cell-based, luminescence, split luciferase, SaOS-2, uHTS (AID 485346)
Conditions: SaOS-2 split-luciferase Mdm2/MdmX complementation, at 8 µM, hits give high values
Out of some 330,000 compounds screened, about 10,000 (3%) were called active. Many of the other results were omitted from the sample, so actives are more common in it than they were.
Each record here notes measured inhibition.
The reply should contain only the number, in %.

Worked examples follow.
>  <Smiles entry>
COc1ccc(S(=O)(=O)N2CCOCC2)cc1NC(=O)CSc1cc(C)ccc1C

>  <Observed measurement>
9.92

$$$$
>  <Smiles entry>
COc1ccc(S(=O)(=O)N2CCOCC2)cc1NC(=O)c1ccc(OCC(C)C)c(OC)c1

>  <Observed measurement>
38.4

$$$$

Now consider the entry below.
Lookup result for "CN(C(=O)c1cc2c(=O)n3ccccc3nc2s1)C1CCCCC1" ; measured inhibition: -88.5

----------
Biological target: Protein Mdm4 (Homo sapiens) + E3 ubiquitin-protein ligase Mdm2 (Homo sapiens) (UniProt O15151+Q00987)
Assay: inhibitors of human Mdm2-MdmX association, primary screen, cell-based, luminescence, split luciferase, SaOS-2, uHTS (AID 485346)
Conditions: SaOS-2 split-luciferase Mdm2/MdmX complementation, at 8 µM, hits give high values
Among all 330,000 compounds or so, about 10,000 (3%) were called active. What follows is part of a selection rich in actives, with near analogues and random picks from the rest.
Property measured: inhibition (%)
Numbers only; they are read as %.

Would you please look over these solved cases?
>  <Compound>
CCOC(=O)c1ccc2c(c1)nc(C)n2CC

>  <Property measured>
inhibition

>  <Unit of measurement>
%

>  <Observed measurement>
-24.3

$$$$
>  <Compound>
CC(=O)Nc1ccc(S(=O)(=O)Nc2ccc(N3CCCCC3)cc2)cc1

>  <Property measured>
inhibition

>  <Unit of measurement>
%

>  <Observed measurement>
55

$$$$
>  <Compound>
COc1ccc(C(=O)OCC(=O)N2CC(=O)Nc3ccccc32)cc1Br

>  <Property measured>
inhibition

>  <Unit of measurement>
%

>  <Observed measurement>
-3.51

$$$$
>  <Compound>
Cc1ccc(OCC(=O)Nc2ccc(NC(=O)c3cccs3)cc2)c(C)c1

>  <Property measured>
inhibition

>  <Unit of measurement>
%

>  <Observed measurement>
13.5

$$$$
>  <Compound>
COCC1CCN(C(=O)C2CCC(=O)N(CC3CCCCC3)C2)CC1 (centres undefined)

>  <Property measured>
inhibition

>  <Unit of measurement>
%

>  <Observed measurement>
-3.42

$$$$

So for "CCN(CC)CCn1cnc2c1c(=O)[nH]c(=O)n2Cc1ccccc1" , the logged inhibition turned out to be 14.5

"COc1ccccc1N1CCN(C(=O)c2cc(=O)c3cc(C)ccc3o2)CC1" has a reported inhibition of 40.1

Memo: "O=C1/C(=C\c2ccccc2Cl)SC(=S)N1CCC(=O)N1CCCc2ccccc21" , reported inhibition: 99.5

Sample "N=c1c2c(-c3ccccc3)c(-c3ccccc3)n(Cc3ccccc3)c2ncn1CCCO" ; inhibition observed: 57.2

----------
Biological target: Protein Mdm4 (Homo sapiens) + E3 ubiquitin-protein ligase Mdm2 (Homo sapiens) (UniProt O15151+Q00987)
Test: inhibitors of human Mdm2-MdmX association, primary screen, cell-based, luminescence, split luciferase, SaOS-2, uHTS (AID 485346)
Conditions: SaOS-2 split-luciferase Mdm2/MdmX complementation, at 8 µM, hits give high values
Hit rate of the full screen: of about 330,000 compounds, about 10,000 (3%) were called active. The sample as a whole holds a higher share of actives than the screen did.
Entries annotated with measured inhibition
Give just the numeric value; % need not be written.

>  <Compound>
Cc1c(-c2ccccc2)cn2c1-c1ccc(C)n1CC2

>  <inhibition, %>
-3.59

$$$$
>  <Compound>
Cc1nnc(NC(=O)C(c2ccccc2)c2ccccc2)s1

>  <inhibition, %>
7.45

$$$$
>  <Compound>
COc1ccc(OC)c(NC(=O)c2ccc3c(c2)CCN3S(C)(=O)=O)c1

>  <inhibition, %>
15.2

$$$$
>  <Compound>
O=C(N/N=C/c1cccc(O)c1)c1cc2c(ccc3ccccc32)o1

>  <inhibition, %>
-1.11

$$$$
>  <Compound>
CN1CCN(CC#CCC2(O)c3ccccc3-c3ccccc32)CC1

>  <inhibition, %>
16.2

$$$$
>  <Compound>
Cc1ccc(NC(=O)c2cc3ccccc3o2)cc1

>  <inhibition, %>
-218

$$$$
>  <Compound>
C=CCO/N=C(\C)c1c(O)c(C)c(-c2ccccc2)n(-c2ccccc2)c1=O

>  <inhibition, %>
9.07

$$$$
>  <Compound>
Cc1ccc(S(=O)(=O)N2[C@@H](c3ccc(Br)cc3)C(C(=O)O)=C[C@H]2CC2CCCC2)cc1

>  <inhibition, %>
30.4

$$$$
>  <Compound>
O=C(NNC(=O)c1cc(S(=O)(=O)N2CCCCC2)ccc1Cl)c1ccccc1O

>  <inhibition, %>
16.6

$$$$
>  <Compound>
COc1ccc(OC)c(S(=O)(=O)NCCC(C)C)c1

>  <inhibition, %>
22.1

$$$$

Lab book: inhibition of "COc1ccc2c(c1)O/C(=C\c1ccccc1O)C2=O" noted as -152

The reported inhibition of the compound "COc1cc(C(=O)OCC(=O)NC23CC4CC(CC(C4)C2)C3)cc(OC)c1OC" was 11.3

Sample "CCN(CC)CCCN=Cc1c(O)n(-c2ccc(C)cc2)c(=O)c2ccccc12" ; inhibition observed: -22.5

Reported inhibition for "COc1ccc(OC)c(NC(=O)c2sc3nc(C)cc(C)c3c2N)c1" was 58.3

Record summary for "Cc1c(/C=N\NC(=O)c2cc3ccccc3o2)c2ccccc2n1C" : reported inhibition = 50.8

So for CCCCN(CCCC)CCC(O)c1cc2c(Cl)cc(Cl)cc2c2cc(C(F)(F)F)ccc12 (configuration not stated) , the logged inhibition turned out to be 60.8

Entry under test: "CCCCC(=O)Nc1ccc(C(=O)Nc2cc(C(F)(F)F)ccc2Cl)cc1" . Its inhibition was 21.2

----------
Biological target: Protein Mdm4 (Homo sapiens) + E3 ubiquitin-protein ligase Mdm2 (Homo sapiens) (UniProt O15151+Q00987)
Test: inhibitors of human Mdm2-MdmX association, primary screen, cell-based, luminescence, split luciferase, SaOS-2, uHTS (AID 485346)
Conditions: SaOS-2 split-luciferase Mdm2/MdmX complementation, at 8 µM
The whole screen tested about 330,000 compounds, of which about 10,000 (3%) were called active.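 Rule for the calls: active = inhibition of at least 50% at 8 µM in the primary screen; inactive = the rest.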 What follows is part of a selection rich in actives, with near analogues and random picks from the rest.
Classes to choose from: active, inactive

>  <Molecule>
CCOc1ccc(CCNC(=O)CSc2cc(=O)n(C)c3ccc(Cl)cc23)cc1OCC

>  <Class assignment>
inactive

$$$$
>  <Molecule>
C[C@]12c3[nH]c4ccc(Cl)cc4c3CCN1C(=O)[C@@H](CC(=O)NCCCn1ccnc1)C[C@@H]2C(=O)N1CCOCC1

>  <Class assignment>
inactive

$$$$
>  <Molecule>
CN(c1ccc2nc3ccccc3c(=O)n2n1)C1CCCCC1

>  <Class assignment>
active

$$$$

For "CCOc1cc(/C=C/c2nc3ccccc3c(=O)[nH]2)cc(Br)c1OC" , what call appears in the results of this test?
active

Tell me the recorded outcome of this test for "Clc1ccc(-c2nc3ccccn3c2CN2CCSCC2)cc1" .
inactive

Hi team, can someone confirm the assay call for "CCOc1ccc(NC(=O)CN(C)C(=O)Cc2sc(C)nc2-c2ccc(F)cc2)cc1OCC" ?
inactive

Recorded test outcome, item Cc1cccc(NC(=O)C(C)SCc2ccccc2)c1 (configuration not stated)
inactive

GET /call?item= "CCCCCCc1cc2cc(-c3nnc(-c4ccccc4)o3)c(=O)oc2cc1O" returns the recorded outcome of this test.
active

What was the test verdict on "Cc1cccc(CS(=O)(=O)c2ncc(Cl)c(C(=O)Nc3ccc(F)cc3)n2)c1" ?
active

Recorded call for "CCN(CCCNC(=O)CSc1cc(=O)n(C)c2cc(Cl)ccc12)Cc1ccccc1" ?
active

State the result this test recorded for "Cc1c(CC(=O)NCCCCCC(=O)O)c(=O)oc2cc3occ(-c4ccccc4)c3cc12" .
inactive

I'd appreciate the recorded outcome for "CSc1ncc(Cl)c(C(=O)Nc2cc(C)ccc2C)n1" from this test.
inactive

Test call for this molecule, please: "CCN(CC)CCCNC(=O)CCc1ccccc1"
inactive

Any idea what this test logged for "Cc1cccc(NC(=O)c2nc(S(=O)(=O)Cc3ccccc3)ncc2Cl)c1" ?
active
